The reported numbers originate from patent US12534457B2.

- Target system: EGFR (d746-750/C797S) (Homo sapiens, UniProt P00533, C797S/DEL746-750)
- Sequence (P00533 with tags, fused parts or gaps DEL746-750/C797S limits assumed): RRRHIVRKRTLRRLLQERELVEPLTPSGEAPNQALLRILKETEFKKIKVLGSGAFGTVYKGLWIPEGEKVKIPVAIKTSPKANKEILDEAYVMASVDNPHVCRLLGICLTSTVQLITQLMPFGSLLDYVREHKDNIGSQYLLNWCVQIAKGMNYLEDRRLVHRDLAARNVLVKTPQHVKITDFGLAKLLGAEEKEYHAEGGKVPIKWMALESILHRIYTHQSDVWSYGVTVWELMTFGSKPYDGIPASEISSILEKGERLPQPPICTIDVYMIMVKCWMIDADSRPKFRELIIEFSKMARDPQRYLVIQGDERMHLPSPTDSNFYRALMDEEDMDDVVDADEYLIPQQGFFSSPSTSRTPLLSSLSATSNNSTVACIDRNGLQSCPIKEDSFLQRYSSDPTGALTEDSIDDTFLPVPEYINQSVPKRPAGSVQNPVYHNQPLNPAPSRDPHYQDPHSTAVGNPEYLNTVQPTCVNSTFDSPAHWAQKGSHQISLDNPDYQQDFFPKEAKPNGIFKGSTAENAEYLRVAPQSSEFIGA
- Assay procedure: EGFR-family mutant enzyme activity (Reaction Biology)
Metric name: IC50

>>> result("COc1cc(N2CCC(N3CCN(C)CC3)CC2)ccc1Nc1cc(N2OCC[C@@H]2c2ccc(F)cc2F)ncn1")
"< 0.5 nM"

====

- Test system: Ba/F3 cells expressing EGFR Del19/C797S (EGFR DC)
- Assay procedure: Proliferation inhibitory activity, Ba/F3 cells expressing EGFR Del19/C797S (CellTiter-Glo)
- Format: cell-based
- Condition notes: Mus musculus, BaF3, 72 hours of compound treatment
Metric name: GI50

>>> result("COc1cc2c(cc1Nc1cc(N3OCC[C@@H]3c3cc(F)cc(F)c3)ncn1)N(C(=O)C(F)(F)F)CC21CCN(C)CC1")
"< 50 nM"
>>> result("CCN1[C@H](C)CN(C2CCN(c3ccc(Nc4cc(N5OCC[C@@H]5c5cccc(F)c5F)ncn4)c(OC)c3)CC2)C[C@@H]1C")
"< 50 nM"
>>> result("CO/N=C(\\C)c1cc(Nc2cc(N3OCC[C@@H]3c3cccc(F)c3F)ncn2)c(OC)cc1N1CCC(N2CCN(C)CC2)CC1")
"< 50 nM"

====

- Target system: EGFR (G719S) (Homo sapiens, UniProt P00533, G719S)
- Sequence (P00533 25-1210 G719S): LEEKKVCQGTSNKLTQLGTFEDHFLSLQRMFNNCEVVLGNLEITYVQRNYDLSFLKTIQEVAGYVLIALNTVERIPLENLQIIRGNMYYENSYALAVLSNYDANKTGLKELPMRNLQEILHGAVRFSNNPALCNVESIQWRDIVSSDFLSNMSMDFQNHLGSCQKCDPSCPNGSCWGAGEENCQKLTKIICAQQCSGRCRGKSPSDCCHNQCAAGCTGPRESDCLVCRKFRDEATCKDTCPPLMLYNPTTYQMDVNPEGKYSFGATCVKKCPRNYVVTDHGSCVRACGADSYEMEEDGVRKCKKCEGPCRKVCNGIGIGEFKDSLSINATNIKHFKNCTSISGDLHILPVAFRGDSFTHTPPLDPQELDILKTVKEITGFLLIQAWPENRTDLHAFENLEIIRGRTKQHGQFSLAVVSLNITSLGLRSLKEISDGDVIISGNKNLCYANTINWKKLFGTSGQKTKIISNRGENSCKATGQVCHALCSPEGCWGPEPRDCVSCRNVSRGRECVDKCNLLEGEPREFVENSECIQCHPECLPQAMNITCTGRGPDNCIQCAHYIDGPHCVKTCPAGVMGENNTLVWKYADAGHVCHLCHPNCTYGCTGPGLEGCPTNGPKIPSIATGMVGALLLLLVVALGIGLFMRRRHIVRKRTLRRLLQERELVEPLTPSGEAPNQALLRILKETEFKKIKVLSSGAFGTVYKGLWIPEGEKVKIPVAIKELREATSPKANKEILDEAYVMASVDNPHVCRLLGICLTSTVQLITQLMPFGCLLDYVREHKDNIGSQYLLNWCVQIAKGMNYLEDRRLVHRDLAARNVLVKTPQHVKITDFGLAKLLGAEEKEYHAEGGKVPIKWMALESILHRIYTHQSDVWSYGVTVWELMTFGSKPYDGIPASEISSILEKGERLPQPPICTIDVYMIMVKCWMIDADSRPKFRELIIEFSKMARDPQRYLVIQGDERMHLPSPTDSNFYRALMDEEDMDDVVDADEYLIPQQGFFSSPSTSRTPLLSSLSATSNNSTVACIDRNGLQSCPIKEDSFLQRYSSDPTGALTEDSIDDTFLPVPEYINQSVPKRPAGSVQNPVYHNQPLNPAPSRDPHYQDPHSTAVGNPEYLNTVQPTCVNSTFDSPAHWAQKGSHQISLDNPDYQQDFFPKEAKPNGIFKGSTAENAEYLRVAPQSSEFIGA
- Assay procedure: EGFR-family mutant enzyme activity (Reaction Biology)
pIC50: −log10 of the molar value.
Metric name: pIC50

>>> result_number("COc1cc(N2CCC(N3CCN(C)CC3)CC2)ccc1Nc1cc(N2OCC[C@@H]2c2ccc(F)cc2F)ncn1")
8.57

====

- Test system: Ba/F3 cells expressing EGFR Del19/C797S (EGFR DC)
- Assay procedure: Proliferation inhibitory activity, Ba/F3 cells expressing EGFR Del19/C797S (CellTiter-Glo)
- Assay type: cell-based
- Condition notes: Mus musculus, BaF3, 72 hours of compound treatment
Listing of recorded GI50 by entry.
Metric name: GI50

>>> result("CN1CCN(c2ccc(Nc3cc(N4OCC5(CC5)[C@@H]4c4ccccc4)ncn3)cc2)CC1 [Example 231]")
"50 to 500 nM"
>>> result("CN1CCN(c2ccc(Nc3cc(N4OCC[C@@H]4c4ccccc4)ncn3)cc2)CC1 [Example 1]")
"< 50 nM"
>>> result("COc1cc(N2CCC(N3CCN(C)CC3)CC2)ccc1Nc1cc(N2OCC[C@@H]2c2cccc(C(F)(F)F)c2F)ncn1 [Example 28]")
"50 to 500 nM"
>>> result("COc1cc(N2CCC(N3CC4(CN(C)C4)C3)CC2)ccc1Nc1cc(N2OCC[C@@H]2c2cccc(F)c2F)ncn1 [Example 211]")
"< 50 nM"
>>> result("CN1CCN(c2ccc(Nc3cc(N4OCC[C@@H]4c4ccccc4)ncn3)cc2OCC(F)(F)F)CC1 [Example 139]")
"< 50 nM"
>>> result("COc1cc(N2CCC(N3CCN(C)CC3)CC2)ccc1Nc1cc(N2OCC[C@@H]2c2cccc3ccccc23)ncn1 [Example 36]")
"50 to 500 nM"
>>> result("COc1cc(N2CCC(N3CCN(C)CC3)CC2)ccc1Nc1cc(N2OCC[C@@H]2c2cc(F)cc(F)c2)ncn1 [Example 21]")
"< 50 nM"

====

- Target system: EGFR (L718Q) (Homo sapiens, UniProt P00533, L718Q)
- Construct: purchased Reaction Biology
- Sequence (P00533 25-1210 L718Q): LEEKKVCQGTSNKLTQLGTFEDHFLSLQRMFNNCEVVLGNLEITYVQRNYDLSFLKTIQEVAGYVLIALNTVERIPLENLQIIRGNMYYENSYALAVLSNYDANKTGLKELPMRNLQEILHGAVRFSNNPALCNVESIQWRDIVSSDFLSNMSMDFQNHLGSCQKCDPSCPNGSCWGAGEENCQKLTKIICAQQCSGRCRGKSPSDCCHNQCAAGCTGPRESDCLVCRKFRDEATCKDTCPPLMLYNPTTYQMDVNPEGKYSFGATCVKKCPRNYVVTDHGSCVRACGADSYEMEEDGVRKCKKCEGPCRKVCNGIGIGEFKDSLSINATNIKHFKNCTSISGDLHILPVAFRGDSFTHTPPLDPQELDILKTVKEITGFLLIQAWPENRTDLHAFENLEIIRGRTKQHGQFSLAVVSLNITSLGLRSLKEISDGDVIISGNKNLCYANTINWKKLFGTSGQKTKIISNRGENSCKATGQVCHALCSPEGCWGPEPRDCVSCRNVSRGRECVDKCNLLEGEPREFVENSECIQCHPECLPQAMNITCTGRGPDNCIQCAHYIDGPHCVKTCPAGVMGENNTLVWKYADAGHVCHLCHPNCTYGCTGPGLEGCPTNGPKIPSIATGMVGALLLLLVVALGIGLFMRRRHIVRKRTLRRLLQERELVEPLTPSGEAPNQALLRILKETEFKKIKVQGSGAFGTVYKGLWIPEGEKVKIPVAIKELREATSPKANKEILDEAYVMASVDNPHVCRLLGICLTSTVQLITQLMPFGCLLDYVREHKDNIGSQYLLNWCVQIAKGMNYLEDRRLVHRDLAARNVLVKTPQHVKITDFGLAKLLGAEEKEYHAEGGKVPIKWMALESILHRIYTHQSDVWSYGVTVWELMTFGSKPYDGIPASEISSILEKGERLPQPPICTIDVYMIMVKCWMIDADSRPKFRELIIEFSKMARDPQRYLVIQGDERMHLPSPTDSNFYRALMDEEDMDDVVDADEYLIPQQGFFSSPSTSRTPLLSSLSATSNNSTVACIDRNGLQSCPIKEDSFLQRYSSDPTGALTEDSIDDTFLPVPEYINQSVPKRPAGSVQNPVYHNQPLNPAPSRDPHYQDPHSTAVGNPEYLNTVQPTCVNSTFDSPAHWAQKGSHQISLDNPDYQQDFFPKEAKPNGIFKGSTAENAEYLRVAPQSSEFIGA
- Assay procedure: EGFR-family mutant enzyme activity (Reaction Biology)
- Type: biochemical
pIC50: −log10 of the molar value.
Metric name: pIC50

>>> result_number("COc1cc(N2CCC(N3CCN(C)CC3)CC2)ccc1Nc1cc(N2OCC[C@@H]2c2ccc(F)cc2F)ncn1")
7.30
